The reader will find reported pEC50 values listed item by item below.
Biological target: TYK2 (aa 871-1187, catalytic domain, GST-tag) (Homo sapiens, UniProt P29597)
Construct: JAK1 (aa 850-1154) and TYK2 (aa 871-1187) are expressed with an N-terminally fused GST-tag; GST (N); purchased Carna Biosciences, Inc; host or cells: baculovirus expression system
Sequence (P29597 871-1187): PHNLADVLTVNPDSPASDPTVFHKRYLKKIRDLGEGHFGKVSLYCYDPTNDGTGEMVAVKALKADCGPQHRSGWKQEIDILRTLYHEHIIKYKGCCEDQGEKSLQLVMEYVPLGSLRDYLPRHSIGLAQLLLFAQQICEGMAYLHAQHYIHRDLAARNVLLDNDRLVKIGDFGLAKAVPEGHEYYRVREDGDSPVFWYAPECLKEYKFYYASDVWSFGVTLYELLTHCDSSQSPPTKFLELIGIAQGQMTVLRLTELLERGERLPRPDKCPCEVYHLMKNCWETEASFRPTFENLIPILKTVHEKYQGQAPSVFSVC
Assay: JAK kinase assay (HTRF, phosphorylation of TK substrate-biotin), TYK2
Assay type: biochemical
Settings: ATP at Km (13 μM); read-out: TYK2 kinase inhibitory activity (EC50 indicator)
pEC50: −log10 of the molar value.

// below: answered compounds
compound="NS(=O)(=O)c1ccc(C(=O)N2CCN(c3ncnc4[nH]ccc34)CC23CC3)cc1Cl [Example 103]" assaysystem="TYK2 (aa 871-1187, catalytic domain, GST-tag) (Homo sapiens, UniProt P29597)" quantityname=pEC50 result="> 7.00"
compound="O=C(c1cc2ccccc2s1)N1CCN(c2ccnc3[nH]ccc23)CC12CC2 [Example 82]" assaysystem="TYK2 (aa 871-1187, catalytic domain, GST-tag) (Homo sapiens, UniProt P29597)" quantityname=pEC50 result="< 6.30"
compound="O=C(c1ccc2sccc2c1)N1CCN(c2ncnc3[nH]ccc23)CC12CC2 [Example 106]" assaysystem="TYK2 (aa 871-1187, catalytic domain, GST-tag) (Homo sapiens, UniProt P29597)" quantityname=pEC50 result="6.30 to 7.00"
compound="O=C(c1ccccc1)N1CCN(c2ncnc3[nH]ccc23)CC12CC2 [Example 27]" assaysystem="TYK2 (aa 871-1187, catalytic domain, GST-tag) (Homo sapiens, UniProt P29597)" quantityname=pEC50 result="6.30 to 7.00"

The reported pEC50 value, TYK2 (aa 871-1187, catalytic domain, GST-tag) (Homo sapiens, UniProt P29597), for CC1CN(C(=O)CCC#N)C2(CC2)CN1c1ncnc2[nH]ccc12 (stereo not shown) [Example 150] reads < 6.30

The reported pEC50 value, TYK2 (aa 871-1187, catalytic domain, GST-tag) (Homo sapiens, UniProt P29597), for N#Cc1ccc(C(=O)N2[C@@H]3CC[C@H]2CN(c2ncnc4[nH]ccc24)C3)s1 [Example 71] reads 6.30 to 7.00

The reported pEC50 value, TYK2 (aa 871-1187, catalytic domain, GST-tag) (Homo sapiens, UniProt P29597), for O=C(c1ccc2cc[nH]c2c1)N1CCN(c2ncnc3[nH]ccc23)CC12CC2 [Example 36] reads < 6.30

The reported pEC50 value, TYK2 (aa 871-1187, catalytic domain, GST-tag) (Homo sapiens, UniProt P29597), for CS(=O)(=O)c1ccc(C(=O)N2C3CCC2CN(c2ncnc4[nH]ccc24)C3)cc1F [Example 131] reads 6.30 to 7.00

The reported pEC50 value, TYK2 (aa 871-1187, catalytic domain, GST-tag) (Homo sapiens, UniProt P29597), for CCC(=O)N1[C@@H]2CC[C@H]1CN(c1ncnc3[nH]ccc13)C2 [Example 30] reads < 6.30

The reported pEC50 value, TYK2 (aa 871-1187, catalytic domain, GST-tag) (Homo sapiens, UniProt P29597), for O=C(c1cc2cc(F)ccc2[nH]1)N1C2CCC1CN(c1ncnc3[nH]ccc13)C2 [Example 136] reads 6.30 to 7.00

The reported pEC50 value, TYK2 (aa 871-1187, catalytic domain, GST-tag) (Homo sapiens, UniProt P29597), for O=C(c1cccc(OC(F)(F)F)c1)N1CCN(c2ncnc3[nH]ccc23)CC12CC2 [Example 160] reads 6.30 to 7.00

The reported pEC50 value, TYK2 (aa 871-1187, catalytic domain, GST-tag) (Homo sapiens, UniProt P29597), for N#CCCN1CCC(C(=O)N2CCN(c3ncnc4[nH]ccc34)CC23CC3)CC1 [Example 97] reads < 6.30

The reported pEC50 value, TYK2 (aa 871-1187, catalytic domain, GST-tag) (Homo sapiens, UniProt P29597), for CC1CN(C(=O)Cc2ccc(C#N)cc2)C2(CC2)CN1c1ncnc2[nH]ccc12 (stereo not shown) [Example 147] reads > 7.00
